# Tested on: Candida albicans
# Protocol description: Minimal inhibitory concentration against Candida albicans
# Assay type: functional
Recorded metric: MIC (µg/mL)

(P) CCCCCCCCCCCCCOC(=O)C[C@H](C[N+](C)(C)C)OC(=O)CCCCCCCC.[Cl-]
(Q) CC(C)CC(=O)O[C@H](CC(=O)OCCCCCCCCCCCBr)C[N+](C)(C)C.[Cl-]
(R) CCCCCCCCCCCCCOC(=O)C[C@H](C[N+](C)(C)C)OC(=O)CCCCCCCCCC.[Cl-]
(S) CCCCCCCCCCCOC(=O)C[C@H](C[N+](C)(C)C)OC(=O)CCCBr.[Cl-]
query: // rank above by MIC: first = highest number Your answer should be the labels, listed in the requested order.
result: R, P, Q, S

Recorded values, source ChEMBL document CHEMBL1131640.
